- TARGET DESC: T1, mouse IL-2Rγ endogenously expressed on MC/9 cells (mouse, UniProt P34902 23-369)
- T1 construct: whole, on cells
- T1 sequence (looked up): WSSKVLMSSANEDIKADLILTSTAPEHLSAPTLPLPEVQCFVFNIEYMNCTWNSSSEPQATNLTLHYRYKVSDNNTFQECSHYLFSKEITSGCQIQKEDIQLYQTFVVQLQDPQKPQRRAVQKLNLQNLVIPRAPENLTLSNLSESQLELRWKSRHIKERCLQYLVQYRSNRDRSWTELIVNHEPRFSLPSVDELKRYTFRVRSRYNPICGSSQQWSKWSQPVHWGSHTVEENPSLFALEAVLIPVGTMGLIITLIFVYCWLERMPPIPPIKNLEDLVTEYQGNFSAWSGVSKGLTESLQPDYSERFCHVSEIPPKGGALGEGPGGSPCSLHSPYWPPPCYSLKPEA
- ASSAY TEXT: flow cytometry, 10 ug/ml antibody, MC/9 cells (endogenous mouse IL-2Rg)
PROPERTY NAME: Raw MFI (MFI)
Just the number in MFI, nothing appended.

{"BINDER": "H4H12900P (antibody, human IgG4 S228P, kappa, V domains shown, fully human anti-IL2Rg antibody, human IgG4) VH: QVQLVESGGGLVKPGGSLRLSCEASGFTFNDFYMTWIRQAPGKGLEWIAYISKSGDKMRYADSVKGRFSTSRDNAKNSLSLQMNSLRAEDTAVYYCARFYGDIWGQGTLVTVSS VL: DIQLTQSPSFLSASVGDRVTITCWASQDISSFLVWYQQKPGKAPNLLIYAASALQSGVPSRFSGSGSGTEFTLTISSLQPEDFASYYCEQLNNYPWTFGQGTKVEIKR", "Raw MFI, MFI": 128}

Problem: Param item = H4H12871P (antibody, human IgG4 S228P, kappa, V domains shown, fully human anti-IL2Rg antibody, human IgG4; also called REGN9434) VH: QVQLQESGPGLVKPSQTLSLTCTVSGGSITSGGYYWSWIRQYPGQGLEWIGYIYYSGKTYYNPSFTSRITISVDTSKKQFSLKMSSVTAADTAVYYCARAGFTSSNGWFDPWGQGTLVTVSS VL: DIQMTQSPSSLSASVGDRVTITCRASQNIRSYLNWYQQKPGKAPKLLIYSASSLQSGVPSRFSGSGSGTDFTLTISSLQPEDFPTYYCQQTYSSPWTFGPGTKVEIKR ; retrieve measured Raw MFI.
Solution: 184
